All figures here come from PubChem BioAssay (NCI).

# Test system: HCC-2998 colon
# assayRemarks: NCI-60 one-dose screen, 48 h
# condition: 10 µM unless noted
This is part of a sample that, as a whole, favours compounds with a hit. Of some 83,000 tested, about 20% had one in any assay. Active and inactive are the calls of the source. The calls were made as follows: active = growth percent below 10; inactive = the rest.
Outcome codes: active, inactive

- C[C@H]1[C@H](C)CC[C@]2(CO)CC[C@]3(C)C(=CC[C@@H]4[C@@]5(C)CCCNC(C)(C)[C@@H]5CC[C@]43C)[C@H]12: active
- CN1CCN(c2ccc3nc(-c4cc(C(C)(C)C)c(O)c(C(C)(C)C)c4)[nH]c3c2)CC1: inactive
- COc1ccc2c(c1)c(CC(=O)NCCOCCOCC(=O)Nc1ccc(OC)c(C(N)=O)c1O)c(C)n2C(=O)c1ccc(Cl)cc1: inactive
- NC(=S)N/N=C(\c1ccc(Cl)cc1)C1CC1: inactive
- C=Cc1cc[n+](CCCCCCCCCCCC)cc1: inactive
- C#CC(=O)Nc1cccc(Nc2nc3c(c(NCc4ccccc4)n2)CCCC3)c1: active
- COc1ccccc1Nc1cc(O)c2c(=O)cc(-c3ccccc3)oc2c1: inactive
- COc1cc2nc(-c3ccc(-c4nn[nH]n4)cc3)[nH]c(=O)c2cc1OC: inactive
- COc1cc(C2CC(c3cccc(Nc4ccncc4)c3)=NN2c2ccc(Cl)cc2)cc(OC)c1OC (stereo not given): active
- CC(=O)c1c(C)[nH]c(-c2nc3ccc(N4CCN(C)CC4)cc3[nH]2)c1-c1ccccc1: inactive
- CC[N+](CC)(CCCC(C)[N+]1(Cc2ccccc2)C(C)=CC=C1C)Cc1ccccc1 (stereo not given): inactive
- C=C1C(=O)O[C@H]2[C@H]1CC/C(COC(=O)CCCCCC(=O)OC/C1=C/CC[C@@]3(C)O[C@H]3[C@H]3OC(=O)C(=C)[C@@H]3CC1)=C\CC[C@@]1(C)O[C@@H]21: inactive
- O=C(Cc1ccc(/C=C/C(=O)c2ncc[nH]2)cc1)Nc1ccc(C(F)(F)F)cc1: inactive
- Cc1c2c(cc[n+]1Cc1ccc(F)cc1)c1ccc(OCc3cccc(F)c3)cc1n2Cc1cccc(F)c1: active
- CN(C)Cc1c(-c2ccccc2)[nH]c2ccccc12: inactive

###

Catalogue of compounds with associated growth
# System: UACC-257 melanoma
# assayRemarks: NCI-60 one-dose screen, 48 h (100 = growth as untreated, 0 = no growth, -100 = all killed)
# condition: 10 µM unless noted
The panel holds about 83,000 compounds, 20% with a hit somewhere; the sample as a whole holds those more often.
reportedProperty: growth (%)

* Cc1cccc(Oc2ccc(Nc3ncnc4ccc(NC(=O)CN(C)C)cc34)cc2Cl)c1 | 81.8
* Clc1cc(Cl)cc(N2N=C(c3cccc(Nc4ccncc4)c3)CC2c2ccc(Br)cc2)c1 (stereo not drawn) | 79.4
* Cc1c([N+](=O)[O-])cc(C(C)(C)C)cc1[N+](=O)[O-] | 85.4
* c1ccc(-c2nn(-c3ccccc3)[n+](-c3cccc4ccccc34)n2)cc1 | 17.5
* CC1=NNC(=O)C1CCC(=O)N/N=C(\C)c1ccc2ccccc2c1 (stereo not drawn) | 99.9
* CC1(C)NCCC[C@]2(C)[C@H]3CC=C4[C@@H]5C[C@@](C)(CO)CC[C@]5(C)CC[C@@]4(C)[C@]3(C)CC[C@@H]12 | 55.1
* Clc1ccc(C2CC(c3cccc(Nc4ccncc4)c3)=NN2c2ccc(Cl)cc2)cc1 (stereo not drawn) | 64.7
* COc1ccccc1Nc1cc(O)c2c(=O)cc(-c3ccccc3)oc2c1 | 54

###

# Test system: K-562 leukemia
# assayRemarks: NCI-60 one-dose screen, 48 h (100 = growth as untreated, 0 = no growth, -100 = all killed)
# condition: 10 µM unless noted
Compounds without any hit were thinned out: in the full panel of roughly 83,000, 20% have a hit.
Catalogue of compounds with associated growth
reportedProperty: growth (%)

- NC(=O)c1cccc(-c2cc(C(N)=O)ccc2Cl)c1: 8.24
- CCn1cc(C2NC(=O)c3ccccc3N2)c2cccc(C)c21 (stereo unspecified): 3.49
- c1ccc(C2CC(c3cccc(Nc4ccncc4)c3)=NN2c2ccccc2)cc1 (stereo unspecified): 0.756
- O=C(NNc1nc(Cl)nc(N2CCN(C(c3ccccc3)c3ccccc3)CC2)n1)c1ccccc1: -38.8
- Cn1c(COC(=O)NCCN2CCOCC2)nc2c(N3CCOCC3)nc(-c3ccccc3)nc21: 0.451
- Fc1ccc2nc3c(cc2c1)CSc1nnc(-c2ccc[nH]c2=S)n1N3: 106

###

# System: KM12 colon
# assayRemarks: NCI-60 one-dose screen, 48 h
# condition: 10 µM unless noted
About 83,000 compounds went through this panel and 20% of them were active in at least one assay; those are over-represented in the sample as a whole. Activity calls are given as the source filed them. How the source made its calls: active means growth percent below 10; inactive means the rest.
Outcome codes: 1 (yes) = active, 0 (no) = inactive

* CCC(=O)c1ccc(O)c(OC)c1 | 0 (no)
* O=S(=O)(NCCCNc1nccc(-c2c(-c3ccc(F)c(O)c3)nc3sccn23)n1)c1ccc(F)cc1 | 0 (no)
* BrC(Br)(Br)c1cnc2ccccc2n1 | 0 (no)
* COC(=O)C1NC(=S)N(c2ccc(Cl)cc2)C1/C=C/c1ccccc1 (configuration not stated) | 0 (no)
* COc1cc(-c2nc3occn3c2-c2ccnc(NCCNS(=O)(=O)c3ccc(Cl)cc3)n2)ccc1F | 0 (no)
* COC(=O)C1=C(C(=O)ONCCN(C)C)C2C=CC1(C(Cc1ccccc1)Nc1ccc(F)cc1)O2 (configuration not stated) | 0 (no)
* COc1ccc(Cl)cc1NC(=O)c1c(NC(=O)C(F)(F)C(F)(F)F)sc2c1CCCCC2 | 1 (yes)
* CC1(C)CN(Cc2ccccc2)CCN1Cc1ccccc1 | 0 (no)
* O=C(Nc1ccc2cc3ccc(NC(=O)NC4CCCCC4)cc3nc2c1)NC1CCCCC1 | 0 (no)
* C=Cc1cc[n+](CCCCCCCCCCCC)cc1 | 0 (no)
* CC(=O)N1N=C(c2cccc(Nc3ccncc3)c2)CC1c1ccccc1 (configuration not stated) | 0 (no)
* O=C(Nc1ccc(F)cc1)c1c(NC(=O)C(F)(F)F)sc2c1CCCCC2 | 1 (yes)

###

# Test system: U251 CNS
# assayRemarks: NCI-60 one-dose screen, 48 h (100 = growth as untreated, 0 = no growth, -100 = all killed)
# condition: 10 µM unless noted
The panel holds about 83,000 compounds, 20% with a hit somewhere; the sample as a whole holds those more often.
Catalogue of compounds with associated growth
reportedProperty: growth (%)

- CN1CCN(c2cnc(C(=O)Nc3cc(F)cc4cccnc34)cn2)CC1: 79.9
- COc1ccc(Cn2nc(-c3cc(OC)c(OC)c(OC)c3)c3c2CCc2cnoc2-3)cc1OC: 62.1
- CN1CCN(CCCOc2ccc3ncnc(Nc4ccc(Oc5cccc(C(F)(F)F)c5)c(Cl)c4)c3c2)CC1: -11
- COc1ccc(C2CC(n3nnnc3-c3ccccc3)=NN2)cc1 (centres undefined): 83.9
- CC1(C)CN(Cc2ccccc2)CCN1Cc1ccccc1: 92.3
- COc1nc(N)nc(-n2c(-c3ccc(C)cc3)nc3ccccc32)c1NCc1ccc(C)cc1: 83
- COc1ccc(-c2nc(N/N=C/c3cccc(O)c3)nc(N3CCOCC3)c2C#N)cc1: 58.9
- CC1=CC2(C)/C=C(C)/C=C\CC(O)/C=C3/C=CC(=C4C(=O)OC2(CC1C)C4=O)OC3 (centres undefined): -50.2
- CS(=O)(=O)OCCN(CCOS(C)(=O)=O)c1ccc(/C=N/Nc2ccc([N+](=O)[O-])cc2[N+](=O)[O-])cc1: 76
- CN1CCN(c2ccc3nc(-c4cc(C(C)(C)C)c(O)c(C(C)(C)C)c4)[nH]c3c2)CC1: 16.5
- O=C(O)c1ccc[n+](CC(=O)N2CCN(c3cc4c(cc3F)c(=O)c(C(=O)O)cn4C3CC3)CC2)c1: 74.7
- O=C(Nc1cccc(C2=NCCN2)c1)c1ccc(OCCCOc2ccc(C(=O)Nc3cccc(C4=NCCN4)c3)cc2)cc1: 24.8
- COc1ccc(CC(C)=C(c2ccc(OCCN(C)C)cc2)c2ccc(OCCN(C)C)cc2)cc1: 55.3
- O=C(O)CNC(=O)CN1C(=O)c2ccccc2C1=O: 96.8
- Cc1ccc(C2CC(c3cccc(Nc4ccncc4)c3)=NN2c2cc(Cl)cc(Cl)c2)cc1 (centres undefined): -48.8
- FC(F)(F)c1cccc(Nc2ccccc2)c1: 97.7
- S=c1[nH]cccc1-c1nnc2n1Nc1nc3ccccc3cc1CS2: 103
- O=C(Nc1nc(-c2ccccc2Cl)cs1)c1cc(-c2ccccc2)nc2ccc(Cl)cc12: 62.5
- COc1cc(/C=N/NC(=O)c2ccccc2Nc2cccc(C(F)(F)F)c2)ccc1O: 87.8
- Cc1[nH]c(C(=O)Nc2ccccc2OCc2cccc(C(=O)NCCN)c2)c(Cl)c1Cl: 4.71
- CC(C)(C#N)N1CCN(c2ccccc2Cl)CC1: 102
- CS(=O)(=O)c1ccc(-c2cc3c(oc2=O)-c2ccccc2OC3O)cc1 (centres undefined): 97.7
- CCCOc1nc(SCCC)nc2c1cnn2-c1ccccc1: 107
- Fc1ccc(C2CC(c3cccc(Nc4ccncc4)c3)=NN2c2ccccc2)cc1 (centres undefined): 18.9
